Reported pIC50 values follow for various compounds
Target: δ opioid receptor (DOP) (Homo sapiens, UniProt P41143)
// pIC50 is dimensionless: -log10 of concentration (M)

Cc1cc(O)cc(C)c1C[C@H](N)C(=O)N[C@H](CCCNC(=N)N)C(=O)N[C@@H](Cc1ccccc1-c1ccc(F)cc1)C(=O)NCC(N)=O [Compound 12, Dmt-D-Arg-Phe(2-(4-F-phenyl))-Gly-NH2] :: 6.36

# input What pIC50 value was documented for this compound, COc1ccc(-c2ccccc2C[C@H](NC(=O)[C@@H](CCCNC(=N)N)NC(=O)[C@@H](N)Cc2c(C)cc(O)cc2C)C(=O)NCC(N)=O)cc1 [Compound 10, Dmt-D-Arg-Phe(2-(4-MeO-phenyl))-Gly-NH2] ?
# output 7.15

# input Try this compound next: C=Cc1ccccc1C[C@H](NC(=O)[C@@H](C)N(C)C(=O)[C@@H](N)Cc1c(C)cc(O)cc1C)C(=O)NCC(N)=O [Compound 18, Dmt-N-Me-D-Ala-Phe(2-vinyl)-Gly-NH2]
# output 7.23
